read-out: Interleukin-1 alpha (IL1a), IL1A (gene 3552); assay: BSK_KF3CT_IL1a: BioMAP Diversity Plus: KF3CT Assay for Interleukin-1 alpha (IL1a) Biomarker Activity (AID 2283070); details: primary human keratinocytes with fibroblasts; actives raise or lower the signal
The source made the active and inactive calls. Rule for the calls: active = hit-call score of the fitted dose curve at least 0.9, where 1 is the maximum; inactive = score below 0.9.
readout: AC50

Observe how each entry below is paired with its result.
// query Annotate the molecule O=CCCCC=O with its measured AC50.
// result 31.2 µM (active)

// query Annotate the molecule CC(O)CC(C)(C)O (stereo not given) with its measured AC50.
// result inactive

// query Annotate the molecule CC(C)(O)c1ccc(CNC(=O)c2cccnc2Oc2ccc3nonc3c2)cc1 with its measured AC50.
// result inactive

// query Annotate the molecule CC(=O)N1CCN(c2ccc(OC[C@H]3CO[C@](Cn4ccnc4)(c4ccc(Cl)cc4Cl)O3)cc2)CC1 with its measured AC50.
// result 33.6 µM (active)

// query Annotate the molecule O=c1ccc2ccccc2o1 with its measured AC50.
// result inactive

// query Annotate the molecule O=C(O)c1ccccc1C(=O)OCc1ccccc1 with its measured AC50.
// result inactive

Next:
// query Annotate the molecule O=C1c2ccccc2C(=O)N1CCc1noc(-c2ccc(CN3CCCCCC3)s2)n1 with its measured AC50.
// result inactive

// query Annotate the molecule CCCCCCCCOc1ccc(C(=O)c2ccccc2)c(O)c1 with its measured AC50.
// result inactive

// query Annotate the molecule O=C(O)Cc1cc(I)c(Oc2ccc(O)c(I)c2)c(I)c1 with its measured AC50.
// result inactive

// query Annotate the molecule Cc1ncc(CO)c(CO)c1O with its measured AC50.
// result inactive

// query Annotate the molecule CCO[Si](CCCNC(N)=O)(OCC)OCC with its measured AC50.
// result inactive

// query Annotate the molecule CCCCOC(=O)c1ccc(O)cc1 with its measured AC50.
// result inactive

// query Annotate the molecule O=c1c(-c2ccc(O)cc2)coc2cc(O)cc(O)c12 with its measured AC50.
// result inactive

// query Annotate the molecule CCCCCCCCCC(=O)O with its measured AC50.
// result inactive

// query Annotate the molecule CCCOC(=O)c1cc(O)c(O)c(O)c1 with its measured AC50.
// result inactive

// query Annotate the molecule CCCCCCCC[Si](OCC)(OCC)OCC with its measured AC50.
// result inactive

// query Annotate the molecule O=C(Nc1ccc(Cl)cc1)Nc1ccc(Cl)c(Cl)c1 with its measured AC50.
// result inactive

// query Annotate the molecule Cc1ccc(C(C)C)cc1 with its measured AC50.
// result inactive

// query Annotate the molecule CCOC(=O)O[C@H](C)OC(=O)c1ccc2c(c1)cc(C(=O)NC1CCN(C(C)C)CC1)n2Cc1cc(-c2ccc(Cl)s2)on1 with its measured AC50.
// result 6.3 µM (active)

// query Annotate the molecule CCCCCCCCCCCCO with its measured AC50.
// result 30.6 µM (active)

// query Annotate the molecule C[C@]12CC[C@@H]3c4ccc(O)cc4CC[C@H]3[C@@H]1CCC2=O with its measured AC50.
// result inactive

// query Annotate the molecule NCc1cccc(C2CCN(C(=O)c3ccc(C#Cc4ccccc4F)o3)CC2)c1 with its measured AC50.
// result 12.3 µM (active)

---

system: rat Adrenergic, Alpha 1B Receptor (Adra1B), gene 24173; test: NVS_GPCR_rAdra1B: NovaScreen (NVS) G Protein-Coupled Receptor Assay for rat Adrenergic, Alpha 1B Receptor (Adra1B) (AID 2283297)
Records with an inconclusive call do not appear. The source made the active and inactive calls. How the source made its calls: active means hit-call score of the fitted dose curve at least 0.9, where 1 is the maximum; inconclusive means response in the unintended direction; inactive means score below 0.9.
readout: AC50

// query Annotate the compound NCc1cccc(C2CCN(C(=O)c3ccc(C#Cc4ccccc4F)o3)CC2)c1 with its measured AC50.
// result 25 µM (active)

// query Annotate the compound CCN(CC)C(=O)c1cc(S(=O)(=O)Cc2ccccc2)c(N2CCC(c3ccccc3)CC2)cc1N(CC)CCN(C)C with its measured AC50.
// result 6.1 µM (active)

// query Annotate the compound Cc1occc1C(=O)Nc1ccc(C(=O)N2CCC(F)(F)/C(=C\C(=O)N3CCC(N4CCCCC4)CC3)c3ccccc32)cc1 with its measured AC50.
// result 3.24 µM (active)

// query Annotate the compound CN(C)C(=O)C1(N2CCCCC2)CCN(CC[C@@]2(c3ccc(Cl)c(Cl)c3)CN(C(=O)c3ccccc3)CCO2)CC1 with its measured AC50.
// result 5.65 µM (active)

// query Annotate the compound COc1cccc([C@H](O)C2CCN(CCc3ccc(F)cc3)CC2)c1OC with its measured AC50.
// result 0.26 µM (active)

---

read-out: growth arrest and DNA damage 45 (GADD45G), GADD45G (gene 10912); experiment: LTEA_HepaRG_GADD45G: Life Technologies and Expression Analysis (LTEA) Assay for growth arrest and DNA damage 45 (GADD45G) using HepaRG (AID 2283499); conditions: mRNA level, 48 h; actives raise or lower the signal
Active and inactive are the calls of the source. Rule for the calls: active = hit-call score of the fitted dose curve at least 0.9, where 1 is the maximum; inactive = score below 0.9.
Select the matching outcome among Yes (active), No (inactive)

// query Record lookup: outcome of this test for CCN(CC)C(=O)c1cc(S(=O)(=O)Cc2ccccc2)c(N2CCC(c3ccccc3)CC2)cc1N(CC)CCN(C)C ?
// result Yes

// query Record lookup: outcome of this test for CN(C[C@@H](CC[N+]12CCC(C3CCCCC3)(CC1)CC2)c1ccc(Cl)c(Cl)c1)C(=O)c1cc(C(F)(F)F)cc(C(F)(F)F)c1 ?
// result No

// query Record lookup: outcome of this test for CCCCOC(=O)c1ccc(O)cc1 ?
// result No

// query Record lookup: outcome of this test for CN(C)c1ccc(C(=C2C=CC(=[N+](C)C)C=C2)c2ccc(N(C)C)cc2)cc1 ?
// result Yes

// query Record lookup: outcome of this test for Cc1occc1C(=O)Nc1ccc(C(=O)N2CCC(F)(F)/C(=C\C(=O)N3CCC(N4CCCCC4)CC3)c3ccccc32)cc1 ?
// result No

// query Record lookup: outcome of this test for OCCO ?
// result No

// query Record lookup: outcome of this test for Oc1ccc2ccccc2c1 ?
// result No

// query Record lookup: outcome of this test for Cc1oc2c(NC(=O)c3c(Cl)cccc3Cl)cccc2c1C(C)(C)O ?
// result No

// query Record lookup: outcome of this test for CC[C@@H]1C[C@H](N(Cc2cc(C(F)(F)F)cc(C(F)(F)F)c2)C(C)=O)c2cc(C(F)(F)F)ccc2N1C(=O)OC(C)C ?
// result No

// query Record lookup: outcome of this test for Cc1cn([C@H]2C[C@H](N=[N+]=[N-])[C@@H](CO)O2)c(=O)[nH]c1=O ?
// result No

// query Record lookup: outcome of this test for COCC(C)OCC(C)OCC(C)O (stereo not drawn) ?
// result No

// query Record lookup: outcome of this test for CCCC(=O)OCCC(C)C ?
// result No

// query Record lookup: outcome of this test for CCCCCc1ccc(N)cc1 ?
// result No

---

experiment: APR_HepG2_P-H2AX_24hr: Apredica 24-hour HepG2 Assay for H2AX Phosphorylation (AID 2282920); conditions: high-content imaging, actives raise or lower the signal
Activity calls are given as the source filed them. How the source made its calls: active means hit-call score of the fitted dose curve at least 0.9, where 1 is the maximum; inactive means score below 0.9.
Select the matching outcome among class 1 = active, class 0 = inactive

// query Record lookup: outcome of this test for Cc1occc1C(=O)Nc1ccc(C(=O)N2CCC(F)(F)/C(=C\C(=O)N3CCC(N4CCCCC4)CC3)c3ccccc32)cc1 ?
// result class 0

// query Record lookup: outcome of this test for C[C@]12CC[C@@H]3c4ccc(O)cc4CC[C@H]3[C@@H]1CC[C@H]2O ?
// result class 1

// query Record lookup: outcome of this test for COCC(C)OCC(C)OCC(C)O (configuration not stated) ?
// result class 0

// query Record lookup: outcome of this test for CC(C)(C)c1csc(-c2cc3cc(OCc4ccccc4CC(=O)O)ccc3o2)n1 ?
// result class 0

// query Record lookup: outcome of this test for O=CCCCC=O ?
// result class 0

// query Record lookup: outcome of this test for CC[C@@H]1C[C@H](N(Cc2cc(C(F)(F)F)cc(C(F)(F)F)c2)C(C)=O)c2cc(C(F)(F)F)ccc2N1C(=O)OC(C)C ?
// result class 0

// query Record lookup: outcome of this test for CC1(C)NC(=O)N(c2ccc([N+](=O)[O-])c(C(F)(F)F)c2)C1=O ?
// result class 0

// query Record lookup: outcome of this test for CCO[Si](CCCNC(N)=O)(OCC)OCC ?
// result class 0

// query Record lookup: outcome of this test for O=C=NCCCCCCN=C=O ?
// result class 0

// query Record lookup: outcome of this test for O=C(O)Cn1c(=O)n(Cc2ccc(Br)cc2F)c(=O)c2ccc(Cl)cc21 ?
// result class 0

// query Record lookup: outcome of this test for Cc1c2ccccc2c(C)c2c1ccc1ccccc12 ?
// result class 1

// query Record lookup: outcome of this test for O=C(O)Cc1cc(I)c(Oc2ccc(O)c(I)c2)c(I)c1 ?
// result class 0
